Measured TGI, listed per entry.
Test system: OVCAR-3 ovarian
Assay: NCI tumour cell line growth inhibition, 48 h
metric-name: TGI

> print(dat)
                                   compound  value.reported
1  COc1ccc(C2[C@@H](Cl)C(=O)N2c2ccc(OC)cc2)cc1 (some centres undefined)        > 100 µM
2  COc1ccc(NC(=O)CC2SC(=Nc3ccc(Cl)cc3C)NC2=O)c([N+](=O)[O-])c1 (centres undefined)        > 100 µM
3  O=C1C(Nc2ccc(S(=O)(=O)Nc3cnc4ccccc4n3)cc2)=CC(=Nc2ccc(S(=O)(=O)Nc3cnc4ccccc4n3)cc2)c2ccccc21         47.6 µM
4  O=[N+]([O-])c1cc(-c2ccc([As](=O)(O)O)cc2)ccc1[As](=O)(O)O        > 100 µM

====

Test system: SK-MEL-2 melanoma
Assay: NCI tumour cell line growth inhibition, 48 h

compound	TGI
CC(=O)Nc1ccc2c(c1)[nH]c(=O)c1cc(NC(C)=O)ccc12	> 100 µM
O=c1[nH]c(C2CCCCC2)nc2ccc(Cl)cc12	> 100 µM
Oc1ccc(Cl)cc1N=Nc1c(O)ccc2ccccc12	> 100 µM
O=C(O)[C@@H](Cc1ccccc1)NS(=O)(=O)c1ccc(-c2ccccc2)cc1	> 100 µM
Cc1cccc(Nc2ncc(-c3ccccc3)o2)c1	> 25 µM
Nc1nc(Cl)cc(Oc2ccc(Cl)cc2)n1	> 100 µM
Clc1ccc(Nc2nnc(COc3ccccc3)c3ccccc23)cc1	5.13 µM
Cc1c2cc[n+](C)cc2c(C)c2c1[nH]c1ccc(OC(C)(C)C)cc12	> 100 µM
CCOC(=O)C1=C(C)NC(c2ccccc2)=C(C(=O)OCc2ccccc2)C1C#Cc1ccccc1 (configuration not stated)	> 100 µM
COc1ccccc1-c1nc[nH]c1-c1ccccc1OC	> 100 µM
O=C(Cn1cc(I)c(C(=O)NCC(O)CO)n1)NCC(O)CO (configuration not stated)	> 100 µM
O=C(NC1CCCCC1)N1CCNC1=S	7.09 µM
O=C1C2=C(c3ccccc31)C(c1ccc([N+](=O)[O-])cc1)NC(=S)N2 (configuration not stated)	> 100 µM
Clc1cc2ns[s+]c2cc1Cl	> 100 µM
CCCC(CCC(=O)O)(CCC(=O)O)[N+](=O)[O-]	> 100 µM
COc1c(C(=O)CC2c3c(cc4oc(C)cc(=O)c4c3OC)OC(=N)C2c2nc3ccccc3[nH]2)c(O)c(OC)c2occc12 (configuration not stated)	> 100 µM
COc1cccc2c1CCc1sc(CN3CCN(C)CC3)nc1-2	> 100 µM
C[C@H]1O[C@@H](O[C@H]2[C@@H](O)C[C@H](O[C@H]3[C@@H](O)C[C@H](O[C@H]4CC[C@]5(C)C6CC[C@]7(C)[C@@H](C8=CC(=O)OC8)CC[C@]7(O)C6CC[C@@H]5C4)O[C@@H]3C)O[C@@H]2C)C[C@H](O)[C@@H]1O (some centres not stated)	0.0675 µM
N/C(=N/O)NOCCC(N)C(=O)O (configuration not stated)	> 100 µM
COc1cc(/C=C/[N+](=O)[O-])cc(OC)c1	4.76 µM
O=C(C#Cc1ccccc1)N1CCCCC1	> 100 µM
C#CCN(Cc1ccc2nc(-c3ccccc3)c(Cl)nc2c1)c1ccc(Cl)c(Cl)c1	> 100 µM

====

System: OVCAR-4 ovarian
Test: NCI tumour cell line growth inhibition, 48 h
metric-name: TGI

compound	test-target	metric-name	value-reported
NC1=NN(c2ccccc2)C(=O)C1/C(=N\NC(=O)c1cc2ccccc2cc1O)C(=O)Nc1ccc(Cl)c(Cl)c1 (configuration not stated)	OVCAR-4 ovarian	TGI	> 100 µM
CCOC(=O)/C(C(N)=O)=C(/O)c1cnccn1	OVCAR-4 ovarian	TGI	> 100 µM
COC(=O)/C(=C1\OC(=O)C(c2ccc(Cl)cc2)=C1O)c1ccc(Cl)cc1	OVCAR-4 ovarian	TGI	> 100 µM
Cc1ccc(O)c(C(=O)/C=C/c2ccccc2)c1	OVCAR-4 ovarian	TGI	> 100 µM
COc1ccc(C2CC(=O)Nc3c2c(C)nn3-c2nc3ccccc3[nH]2)cc1OC (configuration not stated)	OVCAR-4 ovarian	TGI	> 100 µM
COc1ccc(N2CCN(c3nc(-c4ccccn4)nc4sc5c(c34)CCCCCC5)CC2)cc1	OVCAR-4 ovarian	TGI	> 100 µM
C1=Nc2ccc(cc2)-c2ccc(cc2)N=Cc2ccccc2OCc2cccc(n2)COc2ccccc21	OVCAR-4 ovarian	TGI	> 100 µM
O=C(O)[C@@H](Cc1ccccc1)NS(=O)(=O)c1ccc(-c2ccccc2)cc1	OVCAR-4 ovarian	TGI	> 100 µM
Oc1ccc(Cl)cc1N=Nc1c(O)ccc2ccccc12	OVCAR-4 ovarian	TGI	> 100 µM
COc1ccc2c(c1)C(=O)CC(C(N)=O)C2 (configuration not stated)	OVCAR-4 ovarian	TGI	> 100 µM
C=C1C(=O)O[C@H]2[C@H]1CC/C(COC(=O)NCCc1ccc(Br)cc1)=C\CC[C@@]1(C)O[C@@H]21	OVCAR-4 ovarian	TGI	3.29 µM
Cc1ccc2c(=O)cc(-c3ccccc3)[nH]c2n1	OVCAR-4 ovarian	TGI	> 100 µM
CCN(CC(O)COc1ccc2c(c1)[n+]([O-])nc(N)[n+]2[O-])C(C)=O (configuration not stated)	OVCAR-4 ovarian	TGI	> 100 µM
CC(C)c1cccc(C(C)C)c1NC(=O)/C(Cc1nc2ccc(Cl)cc2[nH]c1=O)=N\NC(=O)C[N+](C)(C)C	OVCAR-4 ovarian	TGI	> 100 µM
CCN1C(=O)N(CC)C2C1NN=c1s/c(=C\c3ccc(Br)cc3)c(=O)n12 (configuration not stated)	OVCAR-4 ovarian	TGI	> 100 µM
COc1cc(/C=[N+](\[O-])c2ccccc2Cl)ccc1OC(=S)S	OVCAR-4 ovarian	TGI	27.8 µM
Nc1nc(Cl)cc(OCC2(CO)CCCCC2)n1	OVCAR-4 ovarian	TGI	> 100 µM
COc1ccc(CNCCN2C(=O)c3ccc4c5c(ccc(c35)C2=O)C(=O)N(CCNCc2ccc(OC)c(OC)c2OC)C4=O)c(OC)c1OC	OVCAR-4 ovarian	TGI	0.146 µM
CC(=O)Nc1ccc2c(c1)[nH]c(=O)c1cc(NC(C)=O)ccc12	OVCAR-4 ovarian	TGI	> 100 µM
COc1ccccc1-c1nc[nH]c1-c1ccccc1OC	OVCAR-4 ovarian	TGI	> 100 µM
Cc1cc(S(=O)(=O)Nc2nc3ccccc3s2)c(SCc2ccccc2)cc1Cl	OVCAR-4 ovarian	TGI	51.8 µM
O=C(COc1ccc(Cl)cc1Cl)NNc1ccc([N+](=O)[O-])cc1	OVCAR-4 ovarian	TGI	> 100 µM
C#CCN1C(=O)CN2C(Cl)(Cl)C2(c2ccccc2)c2cc(Cl)ccc21 (configuration not stated)	OVCAR-4 ovarian	TGI	> 100 µM
CC(=O)Nc1ccc(S(=O)(=O)Nc2cnc3ccccc3n2)cc1	OVCAR-4 ovarian	TGI	> 100 µM
O=C(Nc1ccc(-c2cn3ccccc3n2)cc1)c1cc(Br)ccc1O	OVCAR-4 ovarian	TGI	> 100 µM
C[C@H]1O[C@@H](O[C@H]2[C@@H](O)C[C@H](O[C@H]3[C@@H](O)C[C@H](O[C@H]4CC[C@]5(C)C6CC[C@]7(C)[C@@H](C8=CC(=O)OC8)CC[C@]7(O)C6CC[C@@H]5C4)O[C@@H]3C)O[C@@H]2C)C[C@H](O)[C@@H]1O (some centres not stated)	OVCAR-4 ovarian	TGI	0.0732 µM
Cc1cc(C(=O)NOCCO)c(Nc2ccc(I)cc2F)n(C)c1=O	OVCAR-4 ovarian	TGI	> 100 µM

====

Measured TGI, listed per entry.
Test system: HCT-116 colon
Experiment: NCI tumour cell line growth inhibition, 48 h
metric-name: TGI

> print(dat)
                                    compound    test.target  value.reported
 1  CC(C)C(C=O)C(O)(C(F)(F)F)C(F)(F)F (stereo not drawn)  HCT-116 colon        > 100 µM
 2  CCN1C(=O)N(CC)C2C1NN=c1s/c(=C\c3ccc(Br)cc3)c(=O)n12 (stereo not drawn)  HCT-116 colon        > 100 µM
 3  OCC1OC(N2CCN(C3OC(CO)C(O)C(O)C3O)CC2)C(O)C(O)C1O (stereo not drawn)  HCT-116 colon        > 100 µM
 4            N#Cc1ccccc1C#C/C=C\C#Cc1ccccn1  HCT-116 colon         24.3 µM
 5  O=C(Nc1n[nH]c2cc(-c3ccc(F)cc3)ccc12)C1CC1  HCT-116 colon         > 25 µM
 6  O=C(Nc1ccc(-c2cn3ccccc3n2)cc1)c1cc(Br)ccc1O  HCT-116 colon        > 100 µM
 7  c1ccc(OCC[P+](c2ccccc2)(c2ccccc2)c2ccccc2)cc1  HCT-116 colon         11.3 µM
 8                 C/C(COc1ccccc1)=N\NC(N)=S  HCT-116 colon        > 100 µM
 9  OC(CBr)C(O)C(O)C(O)CBr (stereo not drawn)  HCT-116 colon        > 100 µM
10  N/C(=N/O)NOCCC(N)C(=O)O (stereo not drawn)  HCT-116 colon        > 100 µM
11    c1ccc(C(OCCN2CC3CCC(C2)N3)c2ccccc2)cc1  HCT-116 colon        > 100 µM
12                  O=C(C#Cc1ccccc1)N1CCCCC1  HCT-116 colon         67.5 µM
13  COc1cc(/C=[N+](\[O-])c2ccccc2Cl)ccc1OC(=S)S  HCT-116 colon        > 100 µM
14  CCOP(=O)(OCC)C(Cc1cn(S(=O)(=O)c2ccc(C)cc2)cn1)C(=O)O (stereo not drawn)  HCT-116 colon        > 100 µM
15  CCc1c[n+]2c(cc1C1=CN3c4ccccc4[C@]45CCN6C/C(=C/CO)[C@H](C[C@H]64)[C@@H]([C@@H]1O)[C@H]35)-c1[nH]c3ccccc3c1CC2  HCT-116 colon         > 50 µM
16  O=c1oc2c(Cl)cc(Cl)cc2cc1-c1cn2c(n1)sc1ccccc12  HCT-116 colon        > 100 µM
17     CC(C)Cc1cc(-c2cccn2C)c(C#N)c(=O)[nH]1  HCT-116 colon        > 100 µM
18  CCCCCCCCCCCCCC(=O)OCC1OC(=O)C(O)C1O (stereo not drawn)  HCT-116 colon        > 100 µM
19  OC[C@@H](O)[C@H](O)[C@H](O)[C@@H](O)C1SCCCS1  HCT-116 colon        > 100 µM
20  O=C1NC(=O)/C(=C/c2ccc3nccc(-c4ccncc4)c3c2)S1  HCT-116 colon       > 5.61 µM
21   Clc1ccc(Nc2nnc(COc3ccccc3)c3ccccc23)cc1  HCT-116 colon         4.83 µM
22  C=C1CC2(CC(c3ccccc3C)OC(c3ccccc3C)C2)OC1=O (stereo not drawn)  HCT-116 colon         3.21 µM
23             Nc1nc(Cl)cc(OCC2(CO)CCCCC2)n1  HCT-116 colon        > 100 µM
